Source of measurements: paper PMC11882969

Below: a set of entries, each annotated with reported Gi1 hCB1 response.
targetUnderTest: hCB1 (Homo sapiens)
assayDetails: bioSensAll ebBRET signaling profiling, hCB1
Assay type: cell-based
Parameters: host or cells: HEK293SL cells, transient PEI transfection
protocolConditions: Gi1 biosensor; Log [Compound] (M) -8.39794
Format: numeric value only, no unit, no commentary.

Solved entries:
| compound | Gi1 hCB1 response |
| --- | --- |
| Cc1cc(C(=O)N2CC3(CCC3)[C@H]2[C@H]2CCCO2)nn1-c1cccc(C(F)(F)F)c1 [‘1651] | -8.628 |
| COC(=O)C(NC(=O)c1cc(C)n(-c2cccc(C(F)(F)F)c2)n1)c1cccs1 (centres unmarked) [‘60154] | 29.6663 |
| Cc1cc(C(=O)NC(c2ccccc2)c2ccco2)nn1-c1cccc(C#N)c1 (centres unmarked) [‘12565] | -8.2031 |
| Cc1cc(C(=O)NC(c2ccco2)c2ccco2)nn1-c1cccc(C(F)(F)F)c1 [‘1090] | -25.5487 |
| Cc1cc(C(=O)N(C)C(c2ccco2)c2ccco2)nn1-c1cccc(C(F)(F)F)c1 [‘4388] | -7.509 |
| COC(=O)[C@](C)(NC(=O)c1cc(C)n(-c2cccc(C(F)(F)F)c2)n1)c1cccs1 [‘8690] | 14.4917 |
| CC(=O)C(c1cccs1)N(C)C(=O)c1cc(C)n(-c2cccc(C(F)(F)F)c2)n1 (centres unmarked) [‘6829] | -6.077 |

# ---- query compound ----
Query :: Quick one: Gi1 hCB1 response of COC(=O)[C@@H]1[C@@H]2CCC[C@@H]2CN1C(=O)c1cc(C)n(-c2cccc(C(F)(F)F)c2)n1 [‘6439] ?
Result :: 2.361

###

Below: a set of entries, each annotated with reported EC50.
targetUnderTest: hCB1 (Homo sapiens)
assayDetails: bioSensAll ebBRET signaling profiling, hCB1
Format: cell-based
Design: host or cells: HEK293SL cells, transient PEI transfection
protocolConditions: read-out: EC50 [95% CI]; hCB1 Gi1
Use nM as the unit, but write only the number.

| compound | targetUnderTest | uom | EC50 |
| --- | --- | --- | --- |
| Cc1cc(C(=O)N2CC3(CCC3)[C@H]2[C@@H]2CCCO2)nn1-c1cccc(C(F)(F)F)c1 [‘5490] | hCB1 (Homo sapiens) | nM | 2800 |
| COC(=O)[C@@H]1[C@@H]2CCC[C@@H]2CN1C(=O)c1cc(C)n(-c2cccc(Cl)c2)n1 (racemic) [‘10010] | hCB1 (Homo sapiens) | nM | 814 |
| Cc1cc(C(=O)N2CC3(CCC3)[C@H]2[C@H]2CCCO2)nn1-c1cccc(C(F)(F)F)c1 [‘1651] | hCB1 (Homo sapiens) | nM | 3030 |

# ---- query compound ----
Query :: Quick one: EC50 of COC(=O)C(NC(=O)c1cc(C)n(-c2cccc(C(F)(F)F)c2)n1)c1cccs1 (stereo not shown) [‘60154] ?
Result :: 2.5

###

targetUnderTest: UniProt:P20272
Sequence (P20272 whole entry): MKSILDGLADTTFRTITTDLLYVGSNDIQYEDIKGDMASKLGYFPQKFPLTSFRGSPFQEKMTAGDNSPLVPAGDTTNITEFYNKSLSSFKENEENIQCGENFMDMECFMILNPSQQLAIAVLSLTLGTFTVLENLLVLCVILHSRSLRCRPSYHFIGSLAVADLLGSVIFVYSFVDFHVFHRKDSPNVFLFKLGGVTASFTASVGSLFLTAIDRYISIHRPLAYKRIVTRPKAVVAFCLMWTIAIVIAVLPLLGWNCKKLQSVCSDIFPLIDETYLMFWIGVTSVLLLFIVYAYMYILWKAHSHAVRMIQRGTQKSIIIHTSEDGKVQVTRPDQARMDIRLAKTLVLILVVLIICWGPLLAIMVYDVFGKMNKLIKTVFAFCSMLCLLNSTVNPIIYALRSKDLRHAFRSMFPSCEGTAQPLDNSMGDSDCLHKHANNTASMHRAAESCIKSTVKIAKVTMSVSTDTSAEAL
assayDetails: Radioligand competition binding, [3H]-CP-55,940, rat brain membranes
protocolConditions: LLE = pIC50 − clogP
Below: a set of entries, each annotated with reported LLE (lipophilic ligand efficiency).
Format: numeric value only, no unit, no commentary.

| compound | LLE (lipophilic ligand efficiency) |
| --- | --- |
| COC(=O)C(NC(=O)c1cc(C)n(-c2cccc(F)c2)n1)c1cccs1 (stereo not shown) | 3.1 |
| COC(=O)C(NC(=O)c1cc(C)n(-c2cccc(C(F)(F)F)c2)n1)c1cccs1 (stereo not shown) | 3.5 |
| COC(=O)[C@@](C)(NC(=O)c1cc(C)n(-c2cccc(C(F)(F)F)c2)n1)c1cccs1 | 4.7 |

# ---- query compound ----
Query :: Quick one: LLE (lipophilic ligand efficiency) of `Cc1cc(C(=O)NC(C)(c2ccco2)c2ccco2)nn1-c1cccc(C(F)(F)F)c1` ?
Result :: 3.2

###

Below: a set of entries, each annotated with reported Barr2+GRK2 hCB1 response.
targetUnderTest: hCB1 (Homo sapiens, UniProt P21554)
Sequence (P21554 whole entry): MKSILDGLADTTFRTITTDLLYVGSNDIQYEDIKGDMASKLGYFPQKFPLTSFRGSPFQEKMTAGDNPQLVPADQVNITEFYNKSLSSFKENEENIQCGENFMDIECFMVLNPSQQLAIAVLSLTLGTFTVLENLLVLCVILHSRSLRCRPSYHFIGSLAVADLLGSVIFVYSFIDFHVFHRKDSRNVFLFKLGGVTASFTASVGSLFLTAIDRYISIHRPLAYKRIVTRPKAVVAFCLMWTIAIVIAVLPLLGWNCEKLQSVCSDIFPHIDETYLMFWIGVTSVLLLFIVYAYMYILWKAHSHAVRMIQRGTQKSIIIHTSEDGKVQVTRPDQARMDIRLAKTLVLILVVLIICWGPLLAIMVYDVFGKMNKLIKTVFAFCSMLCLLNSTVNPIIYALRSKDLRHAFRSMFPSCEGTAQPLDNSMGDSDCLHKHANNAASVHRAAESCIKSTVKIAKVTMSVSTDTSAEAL
assayDetails: bioSensAll ebBRET signaling profiling, hCB1
Assay type: cell-based
Parameters: host or cells: HEK293SL cells, transient PEI transfection
protocolConditions: Barr2+GRK2 biosensor; Log [Compound] (M) -8.68787
Format: numeric value only, no unit, no commentary.

Query :: # query: Barr2+GRK2 hCB1 response | item `Cn1nc(-c2nnc(C(C)(C)Oc3ccc(Cl)cc3)o2)c2ccccc2c1=O` | system: hCB1 (Homo sapiens, UniProt P21554)
Result :: -55.2161

Query :: # query: Barr2+GRK2 hCB1 response | item Cc1nn(Cc2ccc(Cl)cc2)c(C)c1C(=O)OCC1CSc2ccccc2O1 (stereo not drawn) | system: hCB1 (Homo sapiens, UniProt P21554)
Result :: -41.1769

Query :: # query: Barr2+GRK2 hCB1 response | item `Brc1cc2c(cc1Cc1noc(-c3cnn(CC4CC4)c3)n1)OCO2` | system: hCB1 (Homo sapiens, UniProt P21554)
Result :: -65.1073

Query :: # query: Barr2+GRK2 hCB1 response | item Cc1c(C(=O)OCC2CSc3ccccc3O2)cnn1Cc1ccccc1 (stereo not drawn) | system: hCB1 (Homo sapiens, UniProt P21554)
Result :: -27.1376

Query :: # query: Barr2+GRK2 hCB1 response | item `Cn1nc(-c2nnc(C(C)(C)Oc3ccc(C(F)(F)F)cc3)o2)c2ccccc2c1=O` | system: hCB1 (Homo sapiens, UniProt P21554)
Result :: -0.01644

Query :: # query: Barr2+GRK2 hCB1 response | item `Cc1nc(CC2CC2)oc1-c1nc(Cc2cc3c(cc2Br)OCO3)no1` | system: hCB1 (Homo sapiens, UniProt P21554)
Result :: -30.0093

###

Below: a set of entries, each annotated with reported pEC50 [95% CI].
targetUnderTest: hCB1 (Homo sapiens, UniProt P21554)
assayDetails: bioSensAll ebBRET signaling profiling, hCB1
Assay type: cell-based
Set-up: host or cells: HEK293SL cells, transient PEI transfection
protocolConditions: hCB1 Gi1

Solved entries:
| compound | pEC50 [95% CI] |
| --- | --- |
| Cc1cc(C(=O)N2CC3(CCC3)[C@H]2[C@@H]2CCCO2)nn1-c1cccc(C(F)(F)F)c1 | 5.6 [5.5 – 5.6] |
| COC(=O)C(C)(NC(=O)c1cc(C)n(-c2cccc(C(F)(F)F)c2)n1)c1cccs1 (centres unmarked) | 9.32 [9.2 – 9.4] |
| COC(=O)[C@@](C)(NC(=O)c1cc(C)n(-c2cccc(C(F)(F)F)c2)n1)c1cccs1 | 9.63 [9.5 – 9.7] |
| Cc1c(C(=O)OCC2CSc3ccccc3O2)cnn1Cc1ccccc1 (centres unmarked) | 5.2 [6.0] |
| Cc1cc(C(=O)N2CC3(CCC3)[C@H]2[C@H]2CCCO2)nn1-c1cccc(C(F)(F)F)c1 | 5.5 [5.4 – 5.6] |

Query :: Quick one: pEC50 [95% CI] of COC(=O)C(NC(=O)c1cc(C)n(-c2cccc(F)c2)n1)c1cccs1 (centres unmarked) ?
Result :: 6.1 [6.0 – 6.1]

Query :: Quick one: pEC50 [95% CI] of CC(=O)C(c1cccs1)N(C)C(=O)c1cc(C)n(-c2cccc(C(F)(F)F)c2)n1 (centres unmarked) ?
Result :: 5.4 [5.0 – 5.6]

Query :: Quick one: pEC50 [95% CI] of COC(=O)C(NC(=O)c1cc(C)n(-c2cccc(C(F)(F)F)c2)n1)c1cccs1 (centres unmarked) ?
Result :: 7.6 [7.5 – 7.7]

Query :: Quick one: pEC50 [95% CI] of `COC(=O)[C@](C)(NC(=O)c1cc(C)n(-c2cccc(C(F)(F)F)c2)n1)c1cccs1` ?
Result :: 7.72 [7.6 – 7.8]

Query :: Quick one: pEC50 [95% CI] of `COC(=O)[C@@H]1[C@@H]2CCC[C@@H]2CN1C(=O)c1cc(C)n(-c2cccc(C(F)(F)F)c2)n1` ?
Result :: 7.2 [7.1 – 7.2]

Query :: Quick one: pEC50 [95% CI] of Cc1cc(C(=O)NC(c2ccccc2)c2ccco2)nn1-c1cccc(C(F)(F)F)c1 (centres unmarked) ?
Result :: 6.8 [6.7 – 6.9]

Query :: Quick one: pEC50 [95% CI] of `COC(=O)[C@@H]1[C@@H]2CC[C@@H]2CN1C(=O)c1cc(C)n(-c2cccc(C(F)(F)F)c2)n1` ?
Result :: 6.5 [6.4 – 6.5]

Query :: Quick one: pEC50 [95% CI] of `Cc1cc(C(=O)NC(c2ccco2)c2ccco2)nn1-c1cccc(C(F)(F)F)c1` ?
Result :: 7.5 [7.3 – 7.5]

Query :: Quick one: pEC50 [95% CI] of Cc1cc(C(=O)NC(c2ccccc2)c2ccco2)nn1-c1cccc(C#N)c1 (centres unmarked) ?
Result :: 7.0 [6.9 – 7.1]

Query :: Quick one: pEC50 [95% CI] of COC(=O)[C@@H]1[C@@H]2CCC[C@@H]2CN1C(=O)c1cc(C)n(-c2cccc(Cl)c2)n1 (racemic) ?
Result :: 6.1 [6.0 – 6.1]

Query :: Quick one: pEC50 [95% CI] of Cc1nn(Cc2ccc(Cl)cc2)c(C)c1C(=O)OCC1CSc2ccccc2O1 (centres unmarked) ?
Result :: 5.3 [3.4 – 5.8]

Query :: Quick one: pEC50 [95% CI] of `Cn1nc(-c2nnc(C(C)(C)Oc3ccc(C(F)(F)F)cc3)o2)c2ccccc2c1=O` ?
Result :: 6.0 [5.2 – 6.4]
